target: Dopamine receptor (Bos taurus) (UniProt Q95136+P20288); assay: In vitro ability to enhance the binding of [3H]ADTN to dopamine receptor obtained from bovine caudate membranes at a concentration of 10E-9 M
endpoint name: Increase (%)

Completed entries (count: 3):
NC(=O)CN1CC[C@H](NC(=O)C2CCCN2)C1=O (stereo partly specified) ... 23
NC(=O)CN1OC[C@H](NC(=O)C2CCCN2)C1=O (stereo partly specified) ... 6.8
NC(=O)CN1C(=O)C[C@H](NC(=O)C2CCCN2)C1=O (stereo partly specified) ... 4.6

[P] NC(=O)CN1CCC[C@@H](NC(=O)C2CCCN2)C1=O (stereo partly specified)
[Q] NC(=O)CN1CCCC[C@@H](NC(=O)C2CCCN2)C1=O (stereo partly specified)
-- ask Kindly identify which of P and Q has the larger recorded Increase value. Field: selected label. Fill in the label of the entry you choose.
-- reply Q

---

target: Dopamine receptor (Bos taurus) (UniProt Q95136+P20288); assay: In vitro ability to enhance the binding of [3H]ADTN to dopamine receptor obtained from bovine caudate membranes at a concentration of 10E-6 M
Residues, ends and D or L forms follow the SMILES beside them.
endpoint name: Increase (%)

Completed entries (count: 5):
NC(=O)CN1CC[C@H](NC(=O)C2CCCN2)C1=O (some centres not stated) ... 2.8
CC(C)C[C@H](NC(=O)[C@@H]1CCCN1)C(=O)NCC(N)=O (H-Pro-Leu-Gly-NH2) ... 27
NC(=O)CN1OC[C@H](NC(=O)C2CCCN2)C1=O (some centres not stated) ... 54
NC(=O)CN1C[C@H](NC(=O)C2CCCN2)C1=O (some centres not stated) ... 27
NC(=O)CN1CCC[C@@H](NC(=O)C2CCCN2)C1=O (some centres not stated) ... 43

[a] NC(=O)CN1C(=O)C[C@H](NC(=O)C2CCCN2)C1=O (some centres not stated)
[b] NC(=O)CN1CCCC[C@@H](NC(=O)C2CCCN2)C1=O (some centres not stated)
-- ask Kindly identify which of a and b has the larger recorded Increase value. Field: selected label. Fill in the label of the entry you choose.
-- reply b
(b: 61%, a: 38%)

---

target: Dopamine receptor (Bos taurus) (UniProt Q95136+P20288); experiment: In vitro ability to enhance the binding of [3H]ADTN to dopamine receptor obtained from bovine caudate membranes at a concentration of 10E-4 M
endpoint name: Increase (%)

Completed entries (count: 2):
NC(=O)CN1CC[C@H](NC(=O)C2CCCN2)C1=O (stereo not given in full) ... 1.4
NC(=O)CN1C(=O)C[C@H](NC(=O)C2CCCN2)C1=O (stereo not given in full) ... 13

[I] NC(=O)CN1OC[C@H](NC(=O)C2CCCN2)C1=O (stereo not given in full)
[II] NC(=O)CN1CCCC[C@@H](NC(=O)C2CCCN2)C1=O (stereo not given in full)
-- ask Kindly identify which of I and II has the larger recorded Increase value. Field: selected label. Fill in the label of the entry you choose.
-- reply II
(II: 17%, I: 7%)

---

biological target: Dopamine receptor (Bos taurus) (UniProt Q95136+P20288); test: In vitro ability to enhance the binding of [3H]-ADTN to dopamine receptor obtained from bovine caudate membranes at a concentration of 10E-11 M
endpoint name: Increase (%)

Completed entries (count: 2):
NC(=O)CN1CCCC[C@@H](NC(=O)C2CCCN2)C1=O (stereo not given in full) ... 8
NC(=O)CN1CC[C@H](NC(=O)C2CCCN2)C1=O (stereo not given in full) ... 12

[I] NC(=O)CN1CCC[C@@H](NC(=O)C2CCCN2)C1=O (stereo not given in full)
[II] NC(=O)CN1OC[C@H](NC(=O)C2CCCN2)C1=O (stereo not given in full)
-- ask Kindly identify which of I and II has the larger recorded Increase value. Field: selected label. Fill in the label of the entry you choose.
-- reply I
(I: 4%, II: 2%)
